Would you kindly list viability, T/C for each of these molecules?
Tested on: 126254-015-R-J1-PDC complex spheroid growth, % test/control;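 note: spheroids exposed to compound for seven days; 100% = DMSO vehicle control wells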
Experiment: Anticancer human tumor 126254-015-R-J1-PDC patient-derived soft tissue sarcoma cell line growth inhibition [Asc]
Settings: second compound 0.03 µM; first compound 0.316 µM; hits give low values
Description: Multicellular complex tumor spheroid response to apoptosis pathway targeting inhibitors Alrizomadlin, Pelcitoclax, and Dasminapant in combination with a variety of drugs and investigational agents in selected tumor cell lines […] Compounds. […] If the clinical Cmax for an agent had not been determined, the highest concentration tested was 10 microM. […]
Express the result in % but write the number alone.

The measured viability, T/C associated with O=C(c1cc(Cc2n[nH]c(=O)c3ccccc23)ccc1F)N1CCN(C(=O)C2CC2)CC1 + CCN1C(C(=O)NC23CCC(C(=O)O)(CC2)CC3)C(c2cccc(Cl)c2F)C2(C(=O)Nc3cc(Cl)ccc32)C12CCCCC2 reads 90.3

O=C(c1ccc(F)c(F)c1Nc1ccc(I)cc1F)N1CC(O)([C@@H]2CCCCN2)C1 + CCN1C(C(=O)NC23CCC(C(=O)O)(CC2)CC3)C(c2cccc(Cl)c2F)C2(C(=O)Nc3cc(Cl)ccc32)C12CCCCC2 yielded viability, T/C of 65.6

GET /value?item= C=CC(=O)N1CCN(c2nc(=O)n(-c3c(C)ccnc3C(C)C)c3nc(-c4c(O)cccc4F)c(F)cc23)C(C)C1 (stereo not drawn) + CCN1C(C(=O)NC23CCC(C(=O)O)(CC2)CC3)C(c2cccc(Cl)c2F)C2(C(=O)Nc3cc(Cl)ccc32)C12CCCCC2 &field=viability, T/C returns 106
